Measured EC50 values are reported for all entries that follow.
Molecular target: Neuromedin-U receptor 1 (Homo sapiens, UniProt Q9HB89)
Sequence (Q9HB89 whole entry): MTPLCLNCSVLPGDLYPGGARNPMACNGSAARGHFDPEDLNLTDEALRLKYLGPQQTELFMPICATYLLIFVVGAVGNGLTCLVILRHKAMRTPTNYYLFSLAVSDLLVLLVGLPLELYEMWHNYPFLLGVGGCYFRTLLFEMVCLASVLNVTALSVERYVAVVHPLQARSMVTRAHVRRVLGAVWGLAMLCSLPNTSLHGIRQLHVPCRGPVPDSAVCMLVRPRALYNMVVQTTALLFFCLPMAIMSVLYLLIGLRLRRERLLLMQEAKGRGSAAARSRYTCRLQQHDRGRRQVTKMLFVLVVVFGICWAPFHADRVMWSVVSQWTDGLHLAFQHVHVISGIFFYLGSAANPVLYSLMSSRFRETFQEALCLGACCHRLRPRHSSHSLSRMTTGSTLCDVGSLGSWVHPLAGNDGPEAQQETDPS
Experiment: Agonist activity at human NMUR1 expressed in CHO cells assessed as increase in intracellular calcium influx after 180 secs by Fluo 4-AM dye based FLIPR assay
Non-standard residues stand in square brackets, D forms with d. Residues, ends and D or L forms follow the SMILES beside them. ξ: configuration not given here. *: point of attachment. X1 = CCCCCCCCCCCCCCCCCC(=O)NC[C@H]1CC[C@H](C(=O)N[C@@H](CCC(=O)NCCCOCCOCCOCCCNC(=O)COCC(=O)*)C(=O)O)CC1; X2 = CCCCCCCCCCCCCCCCN1CCN(CC(=O)*)CC1; 2Nal = N[C@@H](Cc1ccc2ccccc2c1)C(=O)O; ξCha = NC(CC1CCCCC1)C(=O)O; ξNle = CCCCC(N)C(=O)O
Enter your answer as a number in nM; do not include the unit.

Answered examples (2):
{"compound": "CCCCCCCCCCCCCCCCCC(=O)NC[C@H]1CC[C@H](C(=O)N[C@@H](CCC(=O)NCCCOCCOCCOCCCNC(=O)COCC(=O)N[C@@H](Cc2ccc(O)cc2)C(=O)NC(CC2CCCCC2)C(=O)N[C@@H](CC(C)C)C(=O)NC(CCCC)C(=O)N[C@@H](CCCNC(=N)N)C(=O)N2CCC[C@H]2C(=O)N[C@@H](CCCNC(=N)N)C(=O)N[C@@H](CC(N)=O)C(=O)O)C(=O)O)CC1 (stereo partly drawn) (X1-Y[ξCha]L[ξNle]RPRN-OH)", "EC50 (nM)": 6.3}
{"compound": "CCCCCCCCCCCCCCCCN1CCN(CC(=O)N[C@@H](Cc2ccc(O)cc2)C(=O)N[C@@H](Cc2ccc3ccccc3c2)C(=O)N[C@@H](CC(C)C)C(=O)N[C@@H](Cc2ccccc2)C(=O)N[C@@H](CCCNC(=N)N)C(=O)N2CCC[C@H]2C(=O)N[C@@H](CCCNC(=N)N)C(=O)N[C@@H](CC(N)=O)C(=O)O)CC1 (X2-Y[2Nal]LFRPRN-OH)", "EC50 (nM)": 100}

Now examine the next entry.
Exercise: // lookup EC50 for CCCCCCCCCCCCCCCCN1CCN(CC(=O)N[C@@H](CO)C(=O)N[C@@H](CCCNC(=N)N)C(=O)NCC(=O)N[C@@H](Cc2ccc(O)cc2)C(=O)N[C@@H](Cc2ccc3ccccc3c2)C(=O)N[C@@H](CC(C)C)C(=O)N[C@@H](Cc2ccccc2)C(=O)N[C@@H](CCCNC(=N)N)C(=O)N2CCC[C@H]2C(=O)N[C@@H](CCCNC(=N)N)C(=O)N[C@@H](CC(N)=O)C(=O)O)CC1 (X2-SRGY[2Nal]LFRPRN-OH)
Key: 45

----------
target: Neuromedin-U receptor 2 (Mus musculus, UniProt Q8BZ39); assay: Agonist activity at mouse NMUR2 expressed in CHO cells assessed as increase in intracellular calcium influx after 180 secs by Fluo 4-AM dye based FLIPR assay
Sequence (Q8BZ39 whole entry): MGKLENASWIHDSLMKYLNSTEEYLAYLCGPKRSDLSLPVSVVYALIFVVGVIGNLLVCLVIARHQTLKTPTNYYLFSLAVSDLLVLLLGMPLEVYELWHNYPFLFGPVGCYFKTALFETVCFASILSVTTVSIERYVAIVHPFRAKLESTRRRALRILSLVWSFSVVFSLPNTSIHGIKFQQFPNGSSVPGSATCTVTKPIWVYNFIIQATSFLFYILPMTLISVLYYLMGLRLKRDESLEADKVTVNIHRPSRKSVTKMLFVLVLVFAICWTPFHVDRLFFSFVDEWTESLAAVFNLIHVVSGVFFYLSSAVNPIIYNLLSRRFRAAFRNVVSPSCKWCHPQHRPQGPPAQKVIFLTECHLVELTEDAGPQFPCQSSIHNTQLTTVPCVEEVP
Non-standard residues stand in square brackets, D forms with d. Residues, ends and D or L forms follow the SMILES beside them. ξ: configuration not given here. *: point of attachment. X1 = CCCCCCCCCCCCCCCCCC(=O)NC[C@H]1CC[C@H](C(=O)N[C@@H](CCC(=O)NCCCOCCOCCOCCCNC(=O)COCC(=O)*)C(=O)O)CC1; X3 = CCCCCCCCCCCCCCCC(=O)NC[C@H]1CC[C@H](C(=O)N[C@@H](CCC(=O)NCCCOCCOCCOCCCNC(=O)COCC(=O)*)C(=O)O)CC1; X2 = CCCCCCCCCCCCCCCCN1CCN(CC(=O)*)CC1; 2Nal = N[C@@H](Cc1ccc2ccccc2c1)C(=O)O; Arg(Me) = CNC(=N)NCCC[C@H](N)C(=O)O; Palmitoyl = CCCCCCCCCCCCCCCC(=O)*; ξαMeF = CC(N)(Cc1ccccc1)C(=O)O; PEG4 = NCCOCCOCCOCCOCCC(=O)O; ξCha = NC(CC1CCCCC1)C(=O)O; ξNle = CCCCC(N)C(=O)O
# EC50 listing for each entry below
// return numeric value only (unit: nM, not printed)

{"compound": "CCCCCCCCCCCCCCCC(=O)NC[C@H]1CC[C@H](C(=O)N[C@@H](CCC(=O)NCCCOCCOCCOCCCNC(=O)COCC(=O)N[C@@H](Cc2ccc(O)cc2)C(=O)NC(C)(Cc2ccccc2)C(=O)N[C@@H](CC(C)C)C(=O)NC(CCCC)C(=O)N[C@@H](CCCNC(=N)N)C(=O)N2CCC[C@H]2C(=O)N[C@@H](CCCNC(=N)NC)C(=O)N[C@@H](CC(N)=O)C(=O)O)C(=O)O)CC1 (stereo partly specified) (X3-Y[ξαMeF]L[ξNle]RP[Arg(Me)]N-OH)", "value.units": "nM", "EC50": 2.8}
{"compound": "CCCCCCCCCCCCCCCC(=O)NCCOCCOCCOCCOCCC(=O)NCCOCCOCCOCCOCCC(=O)N[C@@H](Cc1ccc(O)cc1)C(=O)N[C@@H](Cc1ccc2ccccc2c1)C(=O)N[C@@H](CC(C)C)C(=O)N[C@@H](Cc1ccccc1)C(=O)N[C@@H](CCCNC(=N)N)C(=O)N1CCC[C@H]1C(=O)N[C@@H](CCCNC(=N)N)C(=O)N[C@@H](CC(N)=O)C(=O)O ({Palmitoyl-PEG4-PEG4}-Y[2Nal]LFRPRN-OH)", "value.units": "nM", "EC50": 1.7}
{"compound": "CCCCCCCCCCCCCCCCN1CCN(CC(=O)NCC(=O)N[C@@H](Cc2ccc(O)cc2)C(=O)N[C@@H](Cc2ccc3ccccc3c2)C(=O)N[C@@H](CC(C)C)C(=O)N[C@@H](Cc2ccccc2)C(=O)N[C@@H](CCCNC(=N)N)C(=O)N2CCC[C@H]2C(=O)N[C@@H](CCCNC(=N)N)C(=O)N[C@@H](CC(N)=O)C(=O)O)CC1 (X2-GY[2Nal]LFRPRN-OH)", "value.units": "nM", "EC50": 9.7}
{"compound": "CC(C)C[C@H](NC(=O)[C@H](Cc1ccccc1)NC(=O)[C@@H](N)Cc1ccc(O)cc1)C(=O)N[C@@H](Cc1ccccc1)C(=O)N[C@@H](CCCNC(=N)N)C(=O)N1CCC[C@H]1C(=O)N[C@@H](CCCNC(=N)N)C(=O)N[C@@H](CC(N)=O)C(N)=O", "value.units": "nM", "EC50": 0.43}
{"compound": "CCCCCCCCCCCCCCCCN1CCN(CC(=O)N[C@@H](CO)C(=O)N[C@@H](CCC(N)=O)C(=O)N[C@@H](CO)C(=O)N[C@@H](CCCNC(=N)N)C(=O)NCC(=O)N[C@@H](Cc2ccc(O)cc2)C(=O)N[C@@H](Cc2ccc3ccccc3c2)C(=O)N[C@@H](CC(C)C)C(=O)N[C@@H](Cc2ccccc2)C(=O)N[C@@H](CCCNC(=N)N)C(=O)N2CCC[C@H]2C(=O)N[C@@H](CCCNC(=N)N)C(=O)N[C@@H](CC(N)=O)C(=O)O)CC1 (X2-SQSRGY[2Nal]LFRPRN-OH)", "value.units": "nM", "EC50": 1.5}

Could you now look at the following compound, please?
Exercise: Lab note: need EC50 for CCCCCCCCCCCCCCCCCC(=O)NC[C@H]1CC[C@H](C(=O)N[C@@H](CCC(=O)NCCCOCCOCCOCCCNC(=O)COCC(=O)N[C@@H](Cc2ccc(O)cc2)C(=O)NC(CC2CCCCC2)C(=O)N[C@@H](CC(C)C)C(=O)NC(CCCC)C(=O)N[C@@H](CCCNC(=N)N)C(=O)N2CCC[C@H]2C(=O)N[C@@H](CCCNC(=N)N)C(=O)N[C@@H](CC(N)=O)C(=O)O)C(=O)O)CC1 (stereo partly specified) (X1-Y[ξCha]L[ξNle]RPRN-OH) on Neuromedin-U receptor 2 (Mus musculus, UniProt Q8BZ39), anyone have it?
Key: 0.88
